Reported IC90 at 48 h is given for each of the following compounds.
assay: Cytotoxicity against human Caco-2 cells after 48 hrs by MTT assay; format: cell-based; conditions: human, Caco-2 cells

What value of measured IC90 at 48 h is listed for C=C1[C@@H](OC(=O)[C@H](O)[C@@H](NC(=O)OC(C)(C)C)c2ccccc2)C[C@H](OC(C)=O)[C@]2(C)[C@@H]1C[C@]1(C(C)(C)O)C[C@H](OC(=O)C(O)C(NC(=O)OC(C)(C)C)c3ccccc3)C(C)=C1[C@@H](OC(=O)c1ccccc1)[C@@H]2OC(C)=O (stereo partly specified) ? 100 µg/mL

Check `C=C1[C@H]2C[C@]3(C(C)(C)O)C[C@H](OC(=O)[C@H](O)[C@@H](NC(=O)OC(C)(C)C)c4ccccc4)C(C)=C3[C@@H](OC(=O)c3ccccc3)[C@H](OC(C)=O)[C@]2(C)[C@@H](OC(C)=O)C[C@@H]1O` too. 100 µg/mL

// query: `C=C1[C@H]2C[C@]3(C(C)(C)O)CC(=O)C(C)=C3[C@@H](OC(=O)c3ccccc3)[C@H](OC(C)=O)[C@]2(C)[C@@H](OC(C)=O)C[C@@H]1O` 21 µg/mL

Try this compound next: `C=C1[C@@H](OC(=O)[C@H](O)[C@@H](NC(=O)OC(C)(C)C)c2ccccc2)C[C@H](OC(C)=O)[C@]2(C)[C@@H]1C[C@]1(C(C)(C)O)CC(=O)C(C)=C1[C@@H](OC(=O)c1ccccc1)[C@@H]2OC(C)=O` 100 µg/mL

Query C=C1[C@H]2C[C@]3(C(C)(C)O)C[C@H](O)C(C)=C3[C@@H](OC(=O)c3ccccc3)[C@H](OC(C)=O)[C@]2(C)[C@@H](OC(C)=O)C[C@@H]1O [BREVIFOLIOL] next 1.32 µg/mL

Same read-out for CC(=O)O[C@H]1C(=O)[C@@]2(C)[C@H]([C@H](OC(=O)c3ccccc3)[C@]3(O)C[C@H](OC(=O)[C@H](O)[C@@H](NC(=O)c4ccccc4)c4ccccc4)C(C)=C1C3(C)C)[C@]1(OC(C)=O)CO[C@@H]1C[C@@H]2O [PACLITAXEL] ? 0.065 µg/mL
